Experiment: Thermo Scientific Acclaim RSLC 120 C18, 100 × 2.1 mm, 2.2 µm, 30 °C; A: 90% water + 10% methanol + 0.01% formic acid + 5 mM ammonium formate; B: methanol + 0.01% formic acid + 5 mM ammonium formate; gradient (min/%B) 0.1/1 3/39 14/99.9 16/99.9
Conditions: stereoisomer not certain
readout_name: LC retention time (min)
Give bare numbers, in min.

Examples from the recorded data:
compound	quantitative_result
CSc1nc2ccccc2s1	9.79
COc1nc(C)nc(N)n1	3.71
CCCCc1c(C)nc(N(C)C)[nH]c1=O	7.7
CCS(=O)(=O)CCSP(=O)(OC)OC	4.15
CCCCCC(C)N (stereo not drawn)	5.01
CCCOc1ccc(S(=O)(=O)N2CCN(CC)CC2)cc1-c1nc(=S)c2c([nH]1)c(CCC)nn2C	10.5
CC(C)(C)NCC(O)COc1cccc2c1CC(O)C(O)C2 (stereo not drawn)	4.29
CCC(NC)C(=O)c1ccccc1 (stereo not drawn)	4.26

Working through the 5 compounds below one at a time, give LC retention time for each.
1. c1ccc(CN(CCN2CCCC2)c2ccccc2)cc1
2. NNC(N)=O
3. CCCCCn1cc(C(=O)c2ccc(C)c3ccccc23)c2ccccc21
4. CCOC(=O)CC(SP(=S)(OC)OC)C(=O)OCC (stereo not drawn)
5. CCOC(=O)C(CCc1ccccc1)NC(C)C(=O)N1CCCC1C(=O)O (stereo not drawn)

7.19
1.33
12.9
9.59
6.83

====

Assignment: determine reported LC retention time for the given compounds.
Experiment: Thermo Scientific Acclaim RSLC 120 C18, 100 × 2.1 mm, 2.2 µm, 30 °C; A: 90% water + 10% methanol + 0.01% formic acid + 5 mM ammonium formate; B: methanol + 0.01% formic acid + 5 mM ammonium formate; gradient (min/%B) 0.1/1 3/39 14/99.9 16/99.9
Conditions: stereoisomer not certain
Give bare numbers, in min.

Examples from the recorded data:
compound	LC retention time [min]
CCNC(C)C(=O)c1ccc2c(c1)OCO2 (configuration not stated)	4.04
COC(=O)c1ccccc1C(=O)c1ccc(OCCN2CCCCC2)cc1	5.44
Nc1nc(N)nc(N)n1	1.45
CCC(CC)(CNC(=O)CCCO)c1cccc(OC)c1	8.98
CCC(=O)c1ccc2c(c1)N(CCCN(C)C)c1ccccc1S2	8.49
Cn1c(=O)c2[nH]cnc2n(C)c1=O	3.93
CCOC(=O)C(SP(=S)(OC)OC)c1ccccc1 (configuration not stated)	10.7
CN(C)c1nc(N(C)C)nc(N(C)C)n1	10.1
CCCCC1C(=O)N(c2ccccc2)N(c2ccccc2)C1=O	8.98
CNC(=O)ON=C(CSC)C(C)(C)C	7.8

Working through the 2 compounds below one at a time, give LC retention time for each.
1. COc1ccc(CCNCCCC(C#N)(c2ccc(OC)c(OC)c2)C(C)C)cc1OC (configuration not stated)
2. NCC(O)c1cccc(O)c1 (configuration not stated)

[6.96, 1.81]

====

Experiment: Thermo Scientific Acclaim RSLC 120 C18, 100 × 2.1 mm, 2.2 µm, 30 °C; A: 90% water + 10% methanol + 0.01% formic acid + 5 mM ammonium formate; B: methanol + 0.01% formic acid + 5 mM ammonium formate; gradient (min/%B) 0.1/1 3/39 14/99.9 16/99.9
Conditions: stereoisomer not certain
readout_name: LC retention time
Just the number plus its unit, please.

Examples from the recorded data:
compound	readout_name	result
CN1CSC(=S)N(C)C1	LC retention time	3.97 min
COC(=O)C1C(O)CCC2CN3CCc4c([nH]c5ccccc45)C3CC21 (stereo not drawn)	LC retention time	5.08 min
CCCc1nn(C)c2c(=O)[nH]c(-c3cc(C(C)=O)ccc3OCC)nc12	LC retention time	9.81 min

Working through the 7 compounds below one at a time, give LC retention time for each.
1. CCCCCn1nc(C(=O)NC23CC4CC(CC(C4)C2)C3)c2ccccc21
2. Cc1ncc([N+](=O)[O-])n1CCO
3. CC(C)NCC(O)COc1ccc(COCCOC(C)C)cc1 (stereo not drawn)
4. CNC(=O)Oc1ccc2c(c1)C1(C)CCN(C)C1N2C (stereo not drawn)
5. COC(=O)Nc1nc2ccccc2[nH]1
6. CN1C2CCC1CC(OC(=O)C(CO)c1ccccc1)C2 (stereo not drawn)
7. CCCCN(CCCC)CCCC

1. 14 min
2. 3.58 min
3. 5.91 min
4. 3.89 min
5. 5.46 min
6. 4.36 min
7. 5.28 min

Working through the 8 compounds below one at a time, give LC retention time for each.
1. COc1ccc(CCN(C)CCCC(C#N)(c2ccc(OC)c(OC)c2)C(C)C)cc1OC (stereo not drawn)
2. COc1ccc(Cc2nccc3cc(OC)c(OC)cc23)cc1OC
3. CN1CCC23c4c5ccc(O)c4OC2C(=O)CCC3C1C5 (stereo not drawn)
4. Nc1ncnc2nc[nH]c12
5. CCOc1ccc(C(C)(C)COCc2cccc(Oc3ccccc3)c2)cc1
6. C#CC1(OC(C)=O)CCC2C3CCC4=CC(=O)CCC4C3CCC21C (stereo not drawn)
7. CNC(=O)N(C)c1nnc(C(C)(C)C)s1
8. CCCCCn1cc(C(=O)c2cccc3ccccc23)c2c(O)cccc21

1. 7.03 min
2. 6.27 min
3. 2.91 min
4. 2.43 min
5. 14.1 min
6. 10.8 min
7. 7.25 min
8. 12.5 min
